Attribution: patent US20060134087A1

The following substances are listed with their measured Fraction of Input recovered at pH7.0 values.
TGT: agarose-immobilized hNE beads (Homo sapiens, UniProt P08246)
Sequence (P08246 30-267): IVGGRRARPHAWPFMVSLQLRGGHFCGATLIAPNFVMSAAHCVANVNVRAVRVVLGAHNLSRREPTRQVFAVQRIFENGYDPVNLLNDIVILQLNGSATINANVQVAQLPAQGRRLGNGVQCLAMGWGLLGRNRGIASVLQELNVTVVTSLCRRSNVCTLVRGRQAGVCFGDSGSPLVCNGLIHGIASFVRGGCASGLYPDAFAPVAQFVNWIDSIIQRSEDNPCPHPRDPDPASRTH
PROCEDURE SUMMARY: pH fractionation of display phage on agarose-immobilized hNE beads
Type: binding
Parameters: scale not given here
STATED CONDITIONS: AE abbreviated pH elution protocol
MEASURED PROPERTY: Fraction of Input recovered at pH7.0

substance="MUTP1: ITI-D1 derivative asserting I15, G16, S19; SEQ ID NO 024 (RPDFCQLGYSAGPCIGMFSRYFYNGTSMACETFQYGGCMGNGNNFVTEKDCLQTCRGA; MUTP1)" tgt="agarose-immobilized hNE beads (Homo sapiens, UniProt P08246)" measured_property="Fraction of Input recovered at pH7.0" recorded_result=1.8
substance="BITI-E7-141: BITI-E7 with the alterations E31Q and Q34V; SEQ ID NO 017 (RPDFCQLGYSAGPCVAMFPRYFYNGTSMACQTFVYGGCMGNGNNFVTEKDCLQTCRGA; BITI-E7-141)" tgt="agarose-immobilized hNE beads (Homo sapiens, UniProt P08246)" measured_property="Fraction of Input recovered at pH7.0" recorded_result=2.2
substance="AMINO2: ITI-D1 derivative carrying K1-S4, SEQ ID NO 023 (KPDSCQLGYSAGPCVAMFPRYFYNGTSMACETFQYGGCMGNGNNFVTEKDCLQTCRGA; AMINO2)" tgt="agarose-immobilized hNE beads (Homo sapiens, UniProt P08246)" measured_property="Fraction of Input recovered at pH7.0" recorded_result=0.57
substance="MUTQE: BITI-E7-141 with Q31E; SEQ ID NO 019 (RPDFCQLGYSAGPCVAMFPRYFYNGTSMACETFVYGGCMGNGNNFVTEKDCLQTCRGA; MUTQE)" tgt="agarose-immobilized hNE beads (Homo sapiens, UniProt P08246)" measured_property="Fraction of Input recovered at pH7.0" recorded_result=1.2

###

TGT: agarose-immobilized hNE beads (Homo sapiens)
Sequence (P08246 30-267): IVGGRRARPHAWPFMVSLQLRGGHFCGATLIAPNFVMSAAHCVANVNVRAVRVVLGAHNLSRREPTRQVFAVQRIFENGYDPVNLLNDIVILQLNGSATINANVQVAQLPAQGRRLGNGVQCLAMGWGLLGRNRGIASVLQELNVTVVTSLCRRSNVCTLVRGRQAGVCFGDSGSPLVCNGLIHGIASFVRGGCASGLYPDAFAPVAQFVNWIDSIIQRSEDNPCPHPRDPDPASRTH
PROCEDURE SUMMARY: pH fractionation of display phage on agarose-immobilized hNE beads
Format: binding
STATED CONDITIONS: AE; total fraction of input
MEASURED PROPERTY: Recovery Total

substance="BITI-E7-141: BITI-E7 with the alterations E31Q and Q34V; SEQ ID NO 017 (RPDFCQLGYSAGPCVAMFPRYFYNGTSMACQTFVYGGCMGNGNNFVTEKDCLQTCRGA; BITI-E7-141)" recorded_result="26.0 ×10^−4"
substance="MUTQE: BITI-E7-141 with Q31E; SEQ ID NO 019 (RPDFCQLGYSAGPCVAMFPRYFYNGTSMACETFVYGGCMGNGNNFVTEKDCLQTCRGA; MUTQE)" recorded_result="22.0 ×10^−4"
substance="MUTP1: ITI-D1 derivative asserting I15, G16, S19; SEQ ID NO 024 (RPDFCQLGYSAGPCIGMFSRYFYNGTSMACETFQYGGCMGNGNNFVTEKDCLQTCRGA; MUTP1)" recorded_result="12.0 ×10^−4"
substance="AMINO2: ITI-D1 derivative carrying K1-S4, SEQ ID NO 023 (KPDSCQLGYSAGPCVAMFPRYFYNGTSMACETFQYGGCMGNGNNFVTEKDCLQTCRGA; AMINO2)" recorded_result="3.1 ×10^−4"

###

Quick reference for Fraction of Input recovered at pH3.5 among some substances
TGT: agarose-immobilized hNE beads (Homo sapiens, UniProt P08246)
Sequence (P08246 30-267): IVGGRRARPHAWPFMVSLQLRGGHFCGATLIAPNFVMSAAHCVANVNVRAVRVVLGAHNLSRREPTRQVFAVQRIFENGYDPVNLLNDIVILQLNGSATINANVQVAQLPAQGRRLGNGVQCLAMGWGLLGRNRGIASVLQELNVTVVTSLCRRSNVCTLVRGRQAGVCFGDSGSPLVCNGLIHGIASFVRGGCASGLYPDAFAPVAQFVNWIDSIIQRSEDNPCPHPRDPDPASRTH
PROCEDURE SUMMARY: pH fractionation of display phage on agarose-immobilized hNE beads
Assay type: binding
STATED CONDITIONS: EE; sum of pH 6.0 to pH 3.5 samples
MEASURED PROPERTY: Fraction of Input recovered at pH3.5

substance="MUT1619: BITI-E7-141 with ITI-D1 residues restored at 16 and 19; SEQ ID NO 020 (RPDFCQLGYSAGPCVGMFSRYFYNGTSMACQTFVYGGCMGNGNNFVTEKDCLQTCRGA; MUT1619)" tgt="agarose-immobilized hNE beads (Homo sapiens, UniProt P08246)" recorded_result="9.9 ×10^−4"
substance="MUTT26A: BITI-E7-141 with T26A; SEQ ID NO 018 (RPDFCQLGYSAGPCVAMFPRYFYNGASMACQTFVYGGCMGNGNNFVTEKDCLQTCRGA; MUTT26A)" tgt="agarose-immobilized hNE beads (Homo sapiens, UniProt P08246)" recorded_result="19.0 ×10^−4"
substance="BITI-E7-141: BITI-E7 with the alterations E31Q and Q34V; SEQ ID NO 017 (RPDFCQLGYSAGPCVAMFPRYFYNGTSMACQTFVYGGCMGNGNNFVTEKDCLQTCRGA; BITI-E7-141)" tgt="agarose-immobilized hNE beads (Homo sapiens, UniProt P08246)" recorded_result="21. ×10^−4"
substance="BITI-E7-1222: BITI-E7 with the alteration A11T; SEQ ID NO 143 (RPDFCQLGYSTGPCVAMFPRYFYNGTSMACETFQYGGCMGNGNNFVTEKDCLQTCRGA; BITI-E7-1222)" tgt="agarose-immobilized hNE beads (Homo sapiens, UniProt P08246)" recorded_result="4.0 ×10^−4"
substance="AMINO1: ITI-D1 derivative carrying K1-E2, SEQ ID NO 022 (KEDFCQLGYSAGPCVAMFPRYFYNGTSMACETFQYGGCMGNGNNFVTEKDCLQTCRGA; AMINO1)" tgt="agarose-immobilized hNE beads (Homo sapiens, UniProt P08246)" recorded_result="2.3 ×10^−4"

###

TGT: agarose-immobilized hNE beads (Homo sapiens, UniProt P08246)
Sequence (P08246 30-267): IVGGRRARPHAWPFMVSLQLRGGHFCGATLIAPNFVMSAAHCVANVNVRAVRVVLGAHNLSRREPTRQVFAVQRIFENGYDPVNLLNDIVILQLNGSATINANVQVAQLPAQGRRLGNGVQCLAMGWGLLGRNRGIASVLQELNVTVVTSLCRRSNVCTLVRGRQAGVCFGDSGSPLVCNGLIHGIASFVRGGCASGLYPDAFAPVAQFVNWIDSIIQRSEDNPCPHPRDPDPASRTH
PROCEDURE SUMMARY: pH fractionation of display phage on agarose-immobilized hNE beads
Type: binding
STATED CONDITIONS: range of the affinity class
Ends that are not written are not given here.
MEASURED PROPERTY: Fraction of Input bound

substance="BITI-E7-141: BITI-E7 with the alterations E31Q and Q34V; SEQ ID NO 017 (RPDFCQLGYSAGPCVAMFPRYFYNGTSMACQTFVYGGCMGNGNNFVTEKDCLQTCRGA; BITI-E7-141)" recorded_result=>0.1%
substance="ITI-D1: first Kunitz domain of human inter-α-trypsin inhibitor light chain, SEQ ID NO 016 (KEDSCQLGYSAGPCMGMTSRYFYNGTSMACETFQYGGCMGNGNNFVTEKDCLQTCRTV; disulfide (positions not given here); also: disulfides drawn as lines in table, pairing not given here)" recorded_result=<0.005%
substance="MUT1619: BITI-E7-141 with ITI-D1 residues restored at 16 and 19; SEQ ID NO 020 (RPDFCQLGYSAGPCVGMFSRYFYNGTSMACQTFVYGGCMGNGNNFVTEKDCLQTCRGA; MUT1619)" recorded_result=>0.1%
substance="MUTT26A: BITI-E7-141 with T26A; SEQ ID NO 018 (RPDFCQLGYSAGPCVAMFPRYFYNGASMACQTFVYGGCMGNGNNFVTEKDCLQTCRGA; MUTT26A)" recorded_result=>0.1%
substance="MUTQE: BITI-E7-141 with Q31E; SEQ ID NO 019 (RPDFCQLGYSAGPCVAMFPRYFYNGTSMACETFVYGGCMGNGNNFVTEKDCLQTCRGA; MUTQE)" recorded_result=>0.1%
